Measured viability, T/C by item
System: 885724-159-R-J1-PDC complex spheroid viability;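 further: spheroids exposed to compounds for 7 days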
experimental protocol: Anticancer human tumor 885724-159-R-J1-PDC patient-derived pancreatic adenocarcinoma cell line growth inhibition [POLQ]
condition description: second compound 0.1 µM; first compound 0.316 µM; hits give low values

molecule	viability, T/C, %
CC1COCCN1c1cc(C2(S(C)(=N)=O)CC2)nc(-c2ccnc3[nH]ccc23)n1 (stereo not drawn) + Nc1ccc(C#CCN(C(=O)Cc2ncc(C(F)(F)F)cc2C(F)(F)F)c2ccc(F)cc2)nn1	94
COc1cccc2c1C(=O)c1c(O)c3c(c(O)c1C2=O)CC(O)(C(=O)CO)CC3OC1CC(N)C(O)C(C)O1 (stereo not drawn) + COC1C(OC(N)=O)C(O)C(Oc2ccc3c(O)c(NC(=O)c4ccc(O)c(CC=C(C)C)c4)c(=O)oc3c2C)OC1(C)C	31.5
Nc1ccn(C2OC(CO)C(O)C2(F)F)c(=O)n1 (stereo not drawn) + COC1C(OC(N)=O)C(O)C(Oc2ccc3c(O)c(NC(=O)c4ccc(O)c(CC=C(C)C)c4)c(=O)oc3c2C)OC1(C)C	54

From: PubChem BioAssay AID1963832
